Molecular target: Insulin-like growth factor 1 receptor (Homo sapiens);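 also: each value is a mean percent inhibition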
Settings: at 1 µM
Reported Endpoint: inhibition (%)
The answer is to be given in %; state only the numeric part.

Request: Fill blank: measured inhibition of the molecule CCOc1ccc2c(-c3ccnc(Nc4cc(OC)cc(C(F)(F)F)c4)n3)cnn2n1 is ____.
Response: 7.42

Request: Also COc1ccccc1-c1cc(/C=C2\C(=O)Nc3ncc(Br)cc32)cc(Br)c1O ?
Response: 2.09

Request: Also O=C(Nc1n[nH]c2nnc(-c3cccnc3)cc12)C1CC1 ?
Response: -1.27

Request: Also CC1=C(C(=O)Nc2ccc3[nH]nc(C)c3c2)C(c2ccc(C(F)(F)F)cc2)CC(=O)N1 (stereo not drawn) ?
Response: 3.78

Request: Also CCN1CCC(C(=O)Nc2n[nH]c3nnc(-c4cccc(F)c4F)cc23)CC1 ?
Response: -1.06

Request: Also O=C(O[C@H]1CN[C@H](C#Cc2cc3ncnc(Nc4ccc5c(ccn5Cc5cc(F)ccc5F)c4)c3s2)C1)N1CCOCC1 ?
Response: 2.8

Request: Also FC(F)(F)CNc1nccc(-c2cnn3ncccc23)n1 ?
Response: 1.63

Request: Also CCS(=O)(=O)c1ccc(OC)c(Nc2ncc(-c3cccc(F)c3)o2)c1 ?
Response: 6.74

Request: Also Cc1ccc(-c2cc3c(NC(=O)C4CC4)ncnc3o2)cc1 ?
Response: 5.98

Request: Also CCn1c(-c2nonc2N)nc2cncc(C(=O)NCCNC)c21 ?
Response: 5.76

Request: Also CC(C)c1ccc(-c2cc(-c3c[nH]nc3-c3ccccn3)ccn2)cc1 ?
Response: 2.04

Request: Also CS(=O)(=O)CCNCc1ccc(-c2ccc3ncnc(Nc4ccc(OCc5cccc(C(F)(F)F)c5)cc4)c3c2)o1 ?
Response: 11.6

Request: Also COc1cc(N2CCN(C(C)C)CC2)ccc1Nc1nc(Nc2cccc(F)c2C(=O)O)c2cc[nH]c2n1 ?
Response: 89.8

----------
Kindly supply the reported inhibition values for the records listed here.
Biological target: Serine/threonine-protein kinase PLK1 (Homo sapiens) (UniProt P53350);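 also: reported values are mean PLK1 inhibition, measured as part of the GSK PKIS profiling set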
Sequence (P53350 whole entry): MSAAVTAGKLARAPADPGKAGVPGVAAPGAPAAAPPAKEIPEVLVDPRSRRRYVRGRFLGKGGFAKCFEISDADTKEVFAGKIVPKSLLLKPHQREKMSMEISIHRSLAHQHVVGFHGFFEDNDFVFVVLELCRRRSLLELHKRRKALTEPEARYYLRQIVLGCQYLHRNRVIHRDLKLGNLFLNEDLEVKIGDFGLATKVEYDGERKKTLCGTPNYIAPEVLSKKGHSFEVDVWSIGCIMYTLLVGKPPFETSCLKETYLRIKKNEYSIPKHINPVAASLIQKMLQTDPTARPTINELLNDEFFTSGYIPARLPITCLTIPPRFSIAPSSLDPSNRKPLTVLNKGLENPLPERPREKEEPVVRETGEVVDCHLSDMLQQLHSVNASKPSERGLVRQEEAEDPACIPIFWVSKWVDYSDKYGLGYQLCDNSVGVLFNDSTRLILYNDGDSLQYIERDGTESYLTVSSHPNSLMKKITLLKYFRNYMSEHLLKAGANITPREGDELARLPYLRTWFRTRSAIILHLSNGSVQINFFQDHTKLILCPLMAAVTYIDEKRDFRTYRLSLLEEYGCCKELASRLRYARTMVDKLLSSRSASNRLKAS
Settings: at 0.1 µM
The answer is to be given in %; state only the numeric part.

Request: Fill blank: measured inhibition of the compound NS(=O)(=O)c1ccc(N/N=C2\C(=O)Nc3ccc(C(=O)NCc4ccncc4)cc32)cc1 is ____.
Response: 3.77

Request: Also CCOc1ccc2c(-c3ccnc(Nc4cc(OC)cc(C(F)(F)F)c4)n3)cnn2n1 ?
Response: 0.53

Request: Also CCn1c(-c2nonc2N)nc2cncc(C(=O)NCCNC)c21 ?
Response: 6.23

Request: Also CS(=O)(=O)CCNCc1ccoc1-c1ccc2ncnc(Nc3ccc(OCc4ccccc4)cc3)c2c1 ?
Response: 2.42

Request: Also N#Cc1cccc(Nc2ncc(-c3ccccc3)o2)c1 ?
Response: 2.12

Request: Also N#Cc1ccc2c(-c3ccnc(NC4CC4)n3)c(-c3ccc(F)cc3)nn2c1 ?
Response: 2.66

Request: Also CN(C)CCNC(=O)Nc1ccc(N(C)c2ccnc(Nc3ccc(CS(C)(=O)=O)cc3)n2)cc1 ?
Response: 3.28

Request: Also COC(=O)Nc1nc2ccc(Oc3ccc(NC(=O)Nc4cc(C(F)(F)F)ccc4F)cc3)cc2s1 ?
Response: 1.23

Request: Also CCN1CCC(C(=O)Nc2n[nH]c3nnc(-c4cccc(F)c4F)cc23)CC1 ?
Response: -0.35

Request: Also CC1=C(C(=O)Nc2ccc3[nH]ncc3c2)C(c2ccc(F)cc2)N=C(c2ccc(C(F)(F)F)nc2)N1 (centres undefined) ?
Response: 1.85

Request: Also CCS(=O)(=O)c1ccc(OC)c(Nc2ncc(-c3cccc(F)c3)o2)c1 ?
Response: 7.8

Request: Also c1ccc(-c2n[nH]cc2-c2ccnc(-c3ccc(OCCn4ccnc4)cc3)c2)nc1 ?
Response: 1.2

Request: Also CC1(C)CC(n2cnc(-c3ccc(F)cc3)c2-c2ccnc(N)n2)CC(C)(C)N1 ?
Response: 2.09

Request: Also O=C(O[C@H]1CN[C@H](C#Cc2cc3ncnc(Nc4ccc5c(cnn5Cc5ccccc5)c4)c3s2)C1)N1CCOCC1 ?
Response: -1.27

Request: Also Cc1nnc(-c2cccc(-c3ccc(C(=O)NCC4CC4)cc3)c2)o1 ?
Response: 4.37

Request: Also NS(=O)(=O)c1ccc(N/N=C2\C(=O)Nc3cccc(CCc4ccncc4)c32)cc1 ?
Response: -0.07

Request: Also O=C(O[C@H]1CN[C@H](C#Cc2cc3ncnc(Nc4ccc(OCc5cccc(F)c5)c(Cl)c4)c3s2)C1)N1CCOCC1 ?
Response: 3.78

Request: Also Cn1c(-c2nonc2N)nc2cnccc21 ?
Response: 4.28

Request: Also CCS(=O)(=O)c1ccc(OC)c(Nc2ncc(-c3cccc(C(C)=O)c3)o2)c1 ?
Response: 2.42

Request: Also COc1cccc(-n2ncc3c(N/N=C/c4ccc(C(=O)NCCN(C)C)cc4)ncnc32)c1 ?
Response: 1.5

Request: Also COc1ccccc1-c1cc(/C=C2\C(=O)Nc3ncc(Br)cc32)cc(Br)c1O ?
Response: 4.19

Request: Also Cc1ccc(-c2cc3c(NC(=O)C4CC4)ncnc3o2)cc1 ?
Response: 3.28

Request: Also NC(=O)c1ccc2c(-c3ccnc(NCCCO)n3)c(-c3ccc(F)cc3)nn2c1 ?
Response: 3.87

Request: Also CS(=O)(=O)Nc1ccc(-c2cc(-c3ccccc3)cc(C(N)=O)c2N)cc1 ?
Response: 0.78
